- target desc: T1, mouse IL-2Rα (mouse, UniProt P01590 22-236, limits assumed)
- T1 construct: recombinant protein; also called mo IL-2R; mouse IL-2Ra
- T1 sequence (looked up): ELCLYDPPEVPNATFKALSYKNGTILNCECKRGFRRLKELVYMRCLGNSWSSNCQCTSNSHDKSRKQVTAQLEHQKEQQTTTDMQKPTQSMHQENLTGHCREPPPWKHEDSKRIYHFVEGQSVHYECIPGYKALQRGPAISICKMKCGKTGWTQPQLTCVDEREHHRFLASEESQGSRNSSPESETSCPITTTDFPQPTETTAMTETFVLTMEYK
- assay summary: SPR, P.E. on immobilised antigen
observation type: koff

Worked cases, answers included:
Need koff of 12-MP05B12 (VHH, periplasmic extract; also called FJ1427_P035MP05B12) VHH: QVQLVESGGGLVQAGGSLRLSCAASGFTFDGYAIGWFRQAPGKEREGVSYITGSDGSTYYADSVKGRFTISSNNAKNTVYLHMNSLKPDDAAVYYCAIDRLGSRGAYVPIWWRSSDMDLWGKGTLVTVSS , thanks.
0.000547 s⁻¹

Need koff of FJ1427_P035MP05D10 (VHH, periplasmic extract; also called clone nr; 460) VHH: QVQLVESGGGLVQAGGSLRLSCTASGLTFDGYAIGWFRQAPGKEREGVSYITGSDGSTYYRDSVKGRFTISSDNAKSTVYLQMNTLKPEDTAVYYCAVDRLGSRGLYASSWWRSGDMDLWGKGTLVTVSS , thanks.
0.00284 s⁻¹

Need koff of FJ1427_P035MP05E10 (VHH, periplasmic extract; also called clone nr) VHH: EVQLVESGGGLVQAGGSLRLSCTASGLTFDGYAIGWFRQAPGKEREGVSYITGSDGSTYYIDSVKGRFTISSDIAKSTVYLQMNSLKPEDTAVYYCAVDRLGSRGLYASSWWRSGDMDLWGKGTLVTVSS , thanks.
0.00177 s⁻¹

Need koff of FJ1427_P035MP05D04 (VHH, periplasmic extract; also called clone nr) VHH: QLQLVESGGGLVQAGGSLRLSCAASGLTFDGYAIGWFRQASGKEREGVSYINGRDGSTFYADSVKGRFIISSDNAKNTVDLQMNSLNPDDAAVYYCAVDRLGSRGAYVSSWWRSPDMDLWGKGTLVTVSS , thanks.
0.0122 s⁻¹

Need koff of FJ1427_P035MP05A10 (VHH, periplasmic extract; also called clone nr) VHH: QLQLVESGGGLVQAGGSLRLSCTASGLTFDGYAIGWFRQAPGKEREGVSYITGSDGSTYYIDSVKGRFTISSDIAKSTVYLQMNSLKPEDTAVYYCAVDRLGSRGLYASSWWRSGDMDLWGKGTLVTVSS , thanks.
0.00321 s⁻¹

Further cases:
Need koff of FJ1427_P035MP01C11 (VHH, periplasmic extract; also called clone nr; 83) VHH: QVQLVESGGGLVQAGGSLRLSCAASGGTFRTRNMGWFRRAPGKEREFVAAVSWNVDNKLYAGSVKGRFTISRDNGRNMVYLQMNSLKPEDTAVYYCAADNIPLSSDMRPTATEYDYWGQGTQVTVSS , thanks.
0.351 s⁻¹

Need koff of FJ1427_P035MP05B05 (VHH, periplasmic extract; also called clone nr) VHH: EVQLVESGGGLVQAGGSLRLSCAASGFTFDGYAVGWFRQAPGKEPEGVSYITGSDGVTYYIDSVKGRFTISSDNAKRTVYLQMNTLKPEDTAVYYCAVDRLGSQGRYASSWWRAGDMDFWGKGTLVTVSS , thanks.
0.0114 s⁻¹

Reference for the values: patent US20240409645A1
